Listed below: ELISA signal relative to background values for each entry.
target.or.test.system: T1, FX activation peptide 12-mer APDSITWKPYDA (human)
T1 peptide: APDSITWKPYDA-biotin
protocol.details: peptide ELISA
Ends that are not written are not given here.
In your answer, state the number alone without any accompanying words.

Examples with answers:
* Nb 701B09 (VHH, monovalent Nanobody; also called Nb 701609; not shown: C-terminal FLAG3 and HIS6 tag) VHH: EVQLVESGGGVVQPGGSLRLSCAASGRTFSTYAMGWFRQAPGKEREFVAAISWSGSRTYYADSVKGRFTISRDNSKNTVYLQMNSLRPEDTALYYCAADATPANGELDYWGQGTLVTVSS | 0.82
* Nb 701D07 (VHH, monovalent Nanobody; not shown: C-terminal FLAG3 and HIS6 tag) VHH: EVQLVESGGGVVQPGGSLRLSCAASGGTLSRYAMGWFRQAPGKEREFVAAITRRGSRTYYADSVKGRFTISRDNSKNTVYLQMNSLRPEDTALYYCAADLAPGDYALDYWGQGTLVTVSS | 0.9
* Nb 701C06 (VHH, monovalent Nanobody; not shown: C-terminal FLAG3 and HIS6 tag) VHH: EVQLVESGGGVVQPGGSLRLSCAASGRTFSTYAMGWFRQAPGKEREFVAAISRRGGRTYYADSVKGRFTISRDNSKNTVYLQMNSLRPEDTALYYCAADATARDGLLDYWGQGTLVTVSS | 0.96
* Nb 702C12 (VHH, monovalent Nanobody; not shown: C-terminal FLAG3 and HIS6 tag) VHH: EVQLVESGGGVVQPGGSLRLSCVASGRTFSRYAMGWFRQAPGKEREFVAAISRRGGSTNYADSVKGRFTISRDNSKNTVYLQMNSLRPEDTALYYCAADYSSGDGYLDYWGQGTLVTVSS | 1.06
* Nb 730C03 (VHH, monovalent Nanobody; also called Nb 730003; not shown: C-terminal FLAG3 and HIS6 tag) VHH: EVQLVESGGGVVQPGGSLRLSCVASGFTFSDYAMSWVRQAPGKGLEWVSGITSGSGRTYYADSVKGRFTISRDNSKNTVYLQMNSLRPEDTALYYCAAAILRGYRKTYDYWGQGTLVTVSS | 1.16

Looking up Nb 501A02 (VHH, monovalent control Nanobody; also called control Nanobody; not shown: C-terminal FLAG3 and HIS6 tag) VHH: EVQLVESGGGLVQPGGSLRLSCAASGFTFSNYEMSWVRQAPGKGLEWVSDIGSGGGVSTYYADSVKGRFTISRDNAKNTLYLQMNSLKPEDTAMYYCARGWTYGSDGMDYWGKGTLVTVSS , I see its ELISA signal relative to background listed as 0.74

Looking up Nb 729C08 (VHH, monovalent Nanobody; also called Nb 729008; not shown: C-terminal FLAG3 and HIS6 tag) VHH: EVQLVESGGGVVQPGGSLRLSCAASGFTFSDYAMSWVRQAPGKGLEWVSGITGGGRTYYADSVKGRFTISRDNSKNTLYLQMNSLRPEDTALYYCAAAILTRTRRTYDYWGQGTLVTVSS , I see its ELISA signal relative to background listed as 1.09

Looking up Nb 729A04 (VHH, monovalent Nanobody; not shown: C-terminal FLAG3 and HIS6 tag) VHH: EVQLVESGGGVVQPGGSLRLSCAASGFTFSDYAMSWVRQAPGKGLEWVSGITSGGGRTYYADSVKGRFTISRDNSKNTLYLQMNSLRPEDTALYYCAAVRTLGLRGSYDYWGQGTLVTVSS , I see its ELISA signal relative to background listed as 1.04
